Just for reference, patent US20220177587A1 is where these values come from.

Please provide measured Fold Increase over WT CD80-IgV-Fe for the entries that follow.
# targetDesc: CD28 (Homo sapiens, UniProt P10747)
# measurementDescription: Jurkat/IL2 + CHO/OKT3 +/- PD-L1 reporter assay: PD-L1-dependent CD28 costimulation
# Type: cell-based
# Set-up: host or cells: Jurkat cells expressing an IL-2-luciferase reporter
# studyConditions: Table E21; Jurkat/IL2 + CHO/OKT3/PD-L1; 5.0 nM
Answers are plain numbers, in fold.

Report Fold Increase over WT CD80-IgV-Fe for every entry below.
1. D46V/M47L/V68M (protein) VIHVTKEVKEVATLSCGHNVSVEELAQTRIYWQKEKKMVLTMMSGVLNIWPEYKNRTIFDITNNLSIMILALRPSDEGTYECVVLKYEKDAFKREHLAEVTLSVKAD
2. E35D/M47V/N48K/V68M/L85Q (protein) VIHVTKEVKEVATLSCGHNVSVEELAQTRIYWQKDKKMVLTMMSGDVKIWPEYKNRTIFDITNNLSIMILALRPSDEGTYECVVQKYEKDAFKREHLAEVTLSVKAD
3. E35D/N48K (protein) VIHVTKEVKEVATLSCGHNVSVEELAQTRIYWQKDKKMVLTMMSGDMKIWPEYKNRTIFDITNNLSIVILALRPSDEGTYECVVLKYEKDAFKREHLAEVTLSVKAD
4. M47V/N48K/V68M (protein) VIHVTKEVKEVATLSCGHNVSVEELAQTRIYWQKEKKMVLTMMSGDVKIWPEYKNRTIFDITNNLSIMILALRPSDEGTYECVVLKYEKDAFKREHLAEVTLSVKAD
5. M47L (protein) VIHVTKEVKEVATLSCGHNVSVEELAQTRIYWQKEKKMVLTMMSGDLNIWPEYKNRTIFDITNNLSIVILALRPSDEGTYECVVLKYEKDAFKREHLAEVTLSVKAD
6. E35D/K89N (protein) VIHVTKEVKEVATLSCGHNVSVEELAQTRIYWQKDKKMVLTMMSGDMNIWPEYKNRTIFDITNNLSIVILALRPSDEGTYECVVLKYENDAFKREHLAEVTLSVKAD

1. 6.3
2. 7.9
3. 5.1
4. 5.8
5. 4.6
6. 2.5

Report Fold Increase over WT CD80-IgV-Fe for every entry below.
1. K89N (protein) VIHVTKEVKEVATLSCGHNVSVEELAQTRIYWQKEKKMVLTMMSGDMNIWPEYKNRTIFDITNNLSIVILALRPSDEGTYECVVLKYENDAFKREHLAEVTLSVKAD
2. E35D/M47V/V68M/L85Q/K89N (protein) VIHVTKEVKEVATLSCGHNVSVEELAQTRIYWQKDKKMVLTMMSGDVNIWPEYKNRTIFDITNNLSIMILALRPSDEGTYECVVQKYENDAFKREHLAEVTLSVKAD

1. 1.0
2. 7.4
